Molecular target: Hypoxia-inducible factor 1-alpha (Homo sapiens) (UniProt Q16665)
Sequence (Q16665 whole entry, looked up): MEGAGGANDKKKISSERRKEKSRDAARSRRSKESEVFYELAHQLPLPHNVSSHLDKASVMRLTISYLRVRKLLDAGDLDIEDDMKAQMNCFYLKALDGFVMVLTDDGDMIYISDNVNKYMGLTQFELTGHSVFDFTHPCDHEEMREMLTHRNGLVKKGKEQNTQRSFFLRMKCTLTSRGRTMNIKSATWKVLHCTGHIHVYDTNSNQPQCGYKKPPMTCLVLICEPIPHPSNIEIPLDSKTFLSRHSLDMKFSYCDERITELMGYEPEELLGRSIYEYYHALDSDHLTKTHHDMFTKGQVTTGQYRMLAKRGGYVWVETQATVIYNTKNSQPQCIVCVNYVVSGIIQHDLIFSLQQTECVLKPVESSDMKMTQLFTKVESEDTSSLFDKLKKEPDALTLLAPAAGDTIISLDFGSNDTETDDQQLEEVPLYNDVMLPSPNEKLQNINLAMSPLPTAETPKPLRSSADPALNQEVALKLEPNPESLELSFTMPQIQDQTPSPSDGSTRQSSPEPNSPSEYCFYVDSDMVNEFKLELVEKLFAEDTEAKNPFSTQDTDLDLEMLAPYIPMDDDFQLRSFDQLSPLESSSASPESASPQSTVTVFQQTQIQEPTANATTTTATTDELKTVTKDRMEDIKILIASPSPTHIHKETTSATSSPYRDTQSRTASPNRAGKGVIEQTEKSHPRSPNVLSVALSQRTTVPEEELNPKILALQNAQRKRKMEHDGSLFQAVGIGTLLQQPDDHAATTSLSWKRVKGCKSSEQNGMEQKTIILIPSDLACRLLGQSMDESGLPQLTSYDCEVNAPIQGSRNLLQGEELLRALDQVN
Test: activators of HIF1alpha nuclear accumulation, confirmation, imaging, fluorescence, U2OS GFP-HIF1alpha (AID 434951)
Settings: U2OS GFP-HIF1alpha nuclear intensity, high-content imaging
Activity calls are given as the source filed them.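 Rule for the calls: active = a fitted half-maximal concentration EC50 for the rise in nuclear signal no higher than ten times the top dose tested; inconclusive = flat fit with activity between 30% and 70%, or unusable fit; inactive = EC50 beyond ten times the top dose.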
Give your call using only these classes: active, inactive

Prompt line: So what was the verdict on Cc1nc(NCCc2ccccc2)c(C#N)c(C)c1[N+](=O)[O-] in this test?
Response line: inactive

###

Biological target: Hypoxia-inducible factor 1-alpha (Homo sapiens)
Assay: activators of HIF1alpha nuclear accumulation, confirmation, imaging, fluorescence, U2OS GFP-HIF1alpha (AID 434951)
Conditions: U2OS GFP-HIF1alpha nuclear intensity, high-content imaging
Calls of active or inactive are those of the source.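 How the source made its calls: active means a fitted half-maximal concentration EC50 for the rise in nuclear signal no higher than ten times the top dose tested; inconclusive means flat fit with activity between 30% and 70%, or unusable fit; inactive means EC50 beyond ten times the top dose.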
Result category, one only: true (1) = active, false (0) = inactive

molecule	cat
CC(C)COc1ccc(C(=O)Nc2ccc([N+](=O)[O-])cc2)cc1	false (0)
CN(CC1CCCO1)S(=O)(=O)c1ccc(C(=O)Nc2nccs2)cc1 (stereo not given)	false (0)
COc1ccc(/C=N/Nc2ncnc3sc4c(c23)CCCC4)cc1OC	false (0)
O=C(/C=C/c1ccco1)Oc1cc(Br)cc(/C=N/NC(=O)c2ccccc2O)c1	true (1)
O=[N+]([O-])c1cc(S(=O)(=O)c2ccc(O)c([N+](=O)[O-])c2)ccc1O	false (0)
O=C(/C=C/c1ccccc1)NCCc1nc2ccccc2[nH]1	false (0)
COc1ccc(OC)c(NC(=O)CCc2nnc3ccc(NCc4ccco4)nn23)c1	false (0)
CCn1cc(C(=O)NCC(OC)OC)c(=O)c2cc(S(=O)(=O)N3CCC(C)CC3)ccc21	false (0)
CCOC(=O)C1CCN(C(=O)C2CCCN(c3ncnc4c3nc3n4CCCCC3)C2)CC1 (stereo not given)	false (0)

Prompt line: Dear colleague, could you share the recorded outcome for CC(C)(C)c1cc(C(=O)N2CCN(c3ncccn3)CC2)ccn1 when you have a moment?
Response line: false (0)
